# SUBJECT_OF_TEST: Human glucagon receptor (human, UniProt P47871 26-477)
# METHOD_NOTES: cell-based or functional assay
Where no end group is shown, it is not given here. [ ]: non-standard residue; d: D form. αMePhe(2-F) = C[C@](N)(Cc1ccccc1F)C(=O)O; Ac3c = NC1(C(=O)O)CC1; Aib = CC(C)(N)C(=O)O
Lab note: cut-off is 5 pmol/ml/µg prt. Strictly less in cAMP production with saturated glucagon peptide; test compound 10 nM is 1.0. Exactly 5 pmol/ml/µg prt or more is 0.0.

HAQGTFTSD[Bip(OMe)][Bip(Pyr)] [Seq. ID. No. 10: HAQGTFTSD-Bip(OMe)-Bip(Pyr)]; 0.0
HAQGTFTSD[Bip(OMe)][Bip(2Me)] (not fully specified (C-terminus); printed as HAQGTFTSD-Bip(OMe)-Bip(2Me)) [Seq. ID. No. 9: HAQGTFTSD-Bip(OMe)-Bip(2Me)]; 0.0
HSQGTFTSD[Bip(OMe)][Bip(2Me)]-NH2 [Seq. ID. No. 5: HSQGTFTSD-Bip(OMe)-Bip(2Me)]; 0.0
H[Ac3c]QGTFTSD[Bip(OMe)][Bip(Pyr)] [Seq. ID. No. 18: H-(ACP)-QGTFTSD-Bip(OMe)-Bip(Pyr)]; 1.0
HXQGTXTSDXX (Aib at 2; α-Me-2F-Phe at 6; Bip(OMe) at 10; Bip(2CF3) at 11; C-terminal amide (CONH2)) [Seq. ID. No. 32: H-Aib-QGT-(α-Me-2F-Phe)-TSD-Bip(OMe)-Bip(2CF3)]; 1.0
HXQGTXTSDXX (not fully specified; ACP at 2; α-Me-2F-Phe at 6; Bip(OMe) at 10; Bip(2F) at 11) [Seq. ID. No. 35: H-(ACP)-QGT-(α-Me-2F-Phe)-TSD-Bip(OMe)-Bip(2F)]; 1.0
HXQGTXTSDXX (not fully specified; ACP at 2; α-Me-2F-Phe at 6; Bip(OMe) at 10; Bip(2CF3) at 11) [Seq. ID. No. 36: H-(ACP)-QGT-(α-Me-2F-Phe)-TSD-Bip(OMe)-Bip(2CF3)]; 1.0
HAQGT[αMePhe(2-F)]TSD[Bip(OMe)][Bip(Pyr)] [Seq. ID. No. 26: HAQGT-(α-Me-2F-Phe)-TSD-Bip(OMe)-Bip(Pyr)]; 0.0
HSQGTXTSDXX (α-Me-2F-Phe at 6; Bip(OMe) at 10; Bip(2F) at 11) [Seq. ID. No. 23: HSQGT-(α-Me-2F-Phe)-TSD-Bip(OMe)-Bip(2F)]; 1.0
HAQGTFTSD[Bip(OMe)][Bip(2CF3)] [Seq. ID. No. 12: HAQGTFTSD-Bip(OMe)-Bip(2CF3)]; 1.0

## Input Strictly below 5 pmol/ml/µg prt in cAMP production with saturated glucagon peptide; test compound 10 nM? H[Aib]QGTFTSD[Bip(OMe)][Bip(2CF3)] [Seq. ID. No. 16: H-Aib-QGTFTSD-Bip(OMe)-Bip(2CF3)]
## Output 1.0

## Input Strictly below 5 pmol/ml/µg prt in cAMP production with saturated glucagon peptide; test compound 10 nM? H[Aib]QGTFTSD[Bip(OMe)][Bip(Pyr)] [Seq. ID. No. 14: H-Aib-QGTFTSD-Bip(OMe)-Bip(Pyr)]
## Output 0.0

## Input Strictly below 5 pmol/ml/µg prt in cAMP production with saturated glucagon peptide; test compound 10 nM? HXQGTXTSDXX (ACP at 2; α-Me-2F-Phe at 6; Bip(OMe) at 10; Bip(2Me) at 11) [Seq. ID. No. 33: H-(ACP)-QGT-(α-Me-2F-Phe)-TSD-Bip(OMe)-Bip(2Me)]
## Output 1.0

## Input Strictly below 5 pmol/ml/µg prt in cAMP production with saturated glucagon peptide; test compound 10 nM? HXQGTXTSDXX (not fully specified; ACP at 2; α-Me-2F-Phe at 6; Bip(OMe) at 10; Bip(Pyr) at 11) [Seq. ID. No. 34: H-(ACP)-QGT-(α-Me-2F-Phe)-TSD-Bip(OMe)-Bip(Pyr)]
## Output 1.0

## Input Strictly below 5 pmol/ml/µg prt in cAMP production with saturated glucagon peptide; test compound 10 nM? HXQGTXTSDXX (Aib at 2; α-Me-2F-Phe at 6; Bip(OMe) at 10; Bip(Pyr) at 11) [Seq. ID. No. 30: H-Aib-QGT-(α-Me-2F-Phe)-TSD-Bip(OMe)-Bip(Pyr)]
## Output 0.0
